- Test Summary: in vivo
- Applied Conditions: rat, ip, 4 mg/kg, plasma level of PROG
Measurement Type: concentration at 4 h (ng/mL)
Write the value in ng/mL as a bare number.

Q) What concentration at 4 h value was documented for this molecule, CC(=O)[C@H]1CC[C@H]2[C@@H]3CCC4=CC(=O)CC[C@]4(C)[C@H]3CC[C@]12C [PROG, 4-pregnene-3,20-dione] ?
A) 41.9
